ASSAY_NOTES: luciferase reporter signal suppression in cells – H4 neuroglioma cells, luminescence, dose response (AID 1990)
Format: functional, cell-based
Activity calls are given as the source filed them. Rule as the data show it: actives have a measured EC50 and inactives only a lower limit.
Parameter: EC50. Scope: all listed entries.
MEASURED_ENDPOINT: EC50

>>> recorded_value("CC(Nc1cc(N2CCNCC2)ccc1[N+](=O)[O-])c1ccccc1 (configuration not stated)")
"> 120 µM (not active)"
>>> recorded_value("Cc1cccc(NS(=O)(=O)c2ccc(C)c(C(=O)OCC(=O)Nc3cc(C)on3)c2)c1")
"41.1 µM (active)"
>>> recorded_value("CCc1nc(SCC(=O)N2c3ccccc3CC2C)c2c(C)c(C)sc2n1 (configuration not stated)")
"> 120 µM (not active)"
>>> recorded_value("COc1ccc(-c2[nH]ncc2CN2CCC(O)(c3ccc(Cl)cc3)CC2)cc1")
"18.2 µM (active)"
>>> recorded_value("COc1ccc(CNCCC(c2ccc(OC(C)C)cc2)c2ccccc2OC)cc1 (configuration not stated)")
"11.4 µM (active)"
>>> recorded_value("COc1ccc(NC(=O)C2CCN(C(=O)Nc3ccc(C)cc3)CC2)cc1OC")
"> 120 µM (not active)"
>>> recorded_value("CCC[C@H](CN[C@@H](CNC)[C@H](C)CC)NCCc1cc(C(F)(F)F)cc(C(F)(F)F)c1")
"8.3 µM (active)"

Reference source: ChEMBL document CHEMBL1201862
